Below, each of the molecules is paired with its reported IC50 value.
- subjectOfTest: DNA dC->dU-editing enzyme APOBEC-3G (Homo sapiens, UniProt Q9HC16)
- Sequence (Q9HC16 whole entry): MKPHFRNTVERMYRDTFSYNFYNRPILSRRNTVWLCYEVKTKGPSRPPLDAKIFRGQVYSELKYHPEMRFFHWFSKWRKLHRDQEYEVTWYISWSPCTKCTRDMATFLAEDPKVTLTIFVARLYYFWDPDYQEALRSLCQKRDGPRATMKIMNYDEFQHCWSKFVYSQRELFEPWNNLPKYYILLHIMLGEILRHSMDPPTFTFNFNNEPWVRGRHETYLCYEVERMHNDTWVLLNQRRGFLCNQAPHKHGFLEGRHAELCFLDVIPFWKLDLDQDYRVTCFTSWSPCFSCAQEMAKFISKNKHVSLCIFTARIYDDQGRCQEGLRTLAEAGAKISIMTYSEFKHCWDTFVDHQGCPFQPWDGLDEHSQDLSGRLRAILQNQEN
- Assay type: functional
The source made the active and inactive calls.

The following molecules have reported results that may help.
O=C(CSc1ncnc2nc[nH]c12)Nc1ccccc1C(F)(F)F :: 93.7 µM (active)
COCCN(CC(=O)Nc1cccc(C)c1C)C(=O)CN1C(=O)NC2(CCCCC2)C1=O :: 12.2 µM (active)
COc1ccc(CCNC(=O)CN(C2CCCCC2)S(C)(=O)=O)cc1OC :: 5.58 µM (active)

// below: IC50 requested for another molecule
-- ask State its IC50: CCC(=O)Nc1cc(C(=O)O)ccc1S(=O)(=O)c1ccc(C)cc1
-- reply 42.2 µM (active)

----------
- subjectOfTest: Corticotropin-releasing factor receptor 2/Corticotropin-releasing factor-binding protein (Homo sapiens, UniProt P24387+Q13324)
- Sequence (Q13324 whole entry): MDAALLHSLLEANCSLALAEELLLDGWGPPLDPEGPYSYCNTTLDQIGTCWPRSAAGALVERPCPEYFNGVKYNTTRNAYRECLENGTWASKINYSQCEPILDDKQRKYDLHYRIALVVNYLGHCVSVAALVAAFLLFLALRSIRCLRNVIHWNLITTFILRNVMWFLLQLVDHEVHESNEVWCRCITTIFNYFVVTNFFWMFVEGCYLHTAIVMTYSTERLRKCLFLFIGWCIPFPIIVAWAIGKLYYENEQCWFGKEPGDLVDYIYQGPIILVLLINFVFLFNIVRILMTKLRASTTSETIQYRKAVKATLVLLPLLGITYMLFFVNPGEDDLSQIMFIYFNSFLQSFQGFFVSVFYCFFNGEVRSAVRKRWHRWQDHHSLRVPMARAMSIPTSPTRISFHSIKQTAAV
- Sequence (P24387 whole entry): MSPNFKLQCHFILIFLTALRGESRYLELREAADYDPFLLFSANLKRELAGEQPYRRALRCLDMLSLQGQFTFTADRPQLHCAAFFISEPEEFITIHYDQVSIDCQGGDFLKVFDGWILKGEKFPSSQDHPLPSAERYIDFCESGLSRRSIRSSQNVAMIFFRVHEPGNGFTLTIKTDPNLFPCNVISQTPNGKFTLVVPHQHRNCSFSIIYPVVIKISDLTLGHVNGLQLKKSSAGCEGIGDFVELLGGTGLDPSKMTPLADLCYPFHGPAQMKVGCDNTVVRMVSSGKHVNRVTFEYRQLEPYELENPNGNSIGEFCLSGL
- testMethodNotes: activators of CRF receptor 2 with binding protein – uHTS hits, confirmation (AID 602473)
- Assay type: functional
- assayConditions: read-out: EC50_Mean
Calls of active or inactive are those of the source.
# output must be one of YES = active, NO = inactive

-- ask For this molecule, state the assay outcome: CCn1nc(C)c(NC(=O)Nc2cccc(Cl)c2Cl)c1C
-- reply NO

----------
Recorded below: AC50, system Cytochrome P450 1A2 (Homo sapiens, UniProt P05177).

Clc1ccc2c(N3CCC(CCC4CCN(c5ncnc6cc(Cl)ccc56)CC4)CC3)ncnc2c1 :: 3.16 µM (inconclusive)
COc1ccc(-n2c(=O)c(-c3ccccc3)nc3cnc(N4CCN(C)CC4)nc32)cc1 :: 20 µM (inconclusive)
O=C(c1ccncc1)N1CCC2(CC1)CCN(c1ccccn1)CC2 :: 12.6 µM (inconclusive)
CCCCCCCCSc1nnc(CSc2nc3nc(C)cc(C)n3n2)o1 :: 31.6 µM (inconclusive)
COCCn1c(=O)c(-c2cccc(C#N)c2)nc2cnc(N3CCOCC3)nc21 :: 10 µM (inconclusive)
COc1ccc(OC)c(N(CC(=O)N2CCc3ccccc3C2)S(C)(=O)=O)c1 :: 15.8 µM (inconclusive)

// below: AC50 requested for another compound
-- ask Specify AC50 for CC(C)OC(=O)c1cc2c(ccn2C)n1CC(=O)N1CCC(Cc2ccccc2)CC1 , system Cytochrome P450 1A2 (Homo sapiens, UniProt P05177).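 Note: PubChem cytochrome P450 panel assay, CYP1A2 panel member.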
-- reply 25.1 µM (inconclusive)

----------
- subjectOfTest: Streptokinase A (Streptococcus pyogenes serotype M1, UniProt P10520)
- Sequence (P10520 whole entry): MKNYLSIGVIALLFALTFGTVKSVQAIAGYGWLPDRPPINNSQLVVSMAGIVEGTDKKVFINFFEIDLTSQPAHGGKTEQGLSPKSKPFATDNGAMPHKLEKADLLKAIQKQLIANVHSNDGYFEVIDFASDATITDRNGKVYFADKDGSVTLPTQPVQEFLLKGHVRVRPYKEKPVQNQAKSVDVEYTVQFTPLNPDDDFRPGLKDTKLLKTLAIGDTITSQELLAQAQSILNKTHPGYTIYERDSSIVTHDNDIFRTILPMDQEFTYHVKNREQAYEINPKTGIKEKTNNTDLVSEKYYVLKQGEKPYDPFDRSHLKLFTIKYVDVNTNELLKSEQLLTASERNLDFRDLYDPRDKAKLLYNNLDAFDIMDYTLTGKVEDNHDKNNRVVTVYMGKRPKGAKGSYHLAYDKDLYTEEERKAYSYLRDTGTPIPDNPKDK
- testMethodNotes: viability-normalized secreted streptokinase activity reduction – plasminogen activation absorbance, OD405, dose response (AID 1914);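 note: secreted streptokinase activity via plasminogen activation per viability signal from cell pellet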
- Format: functional, Streptococcus pyogenes M1 GAS
The source made the active and inactive calls.
Let's look at some compounds and their measured EC50.

CCOc1cccc2sc(Nc3nc4ccc(NC(C)=O)cc4s3)nc12 :: > 150 µM (not active)
COc1ccccc1NC(=O)Nc1nc(CC(=O)Nc2cc(F)ccc2F)cs1 :: > 150 µM (not active)
Cc1oc(C(C)(C)C)cc1C(=O)N1CCN(C(c2ccccc2)c2ccccc2)CC1 :: 17.6 µM (active)
CC1(C)S[C@@H]2[C@H](NC(=O)COc3ccccc3)C(=O)N2C1C(=O)OCc1cc2ccccc2n1S(=O)(=O)c1ccccc1 (some centres undefined) :: 23.6 µM (active)
COc1ccccc1N=Nc1nc(-c2ccccc2)c(-c2ccccc2)[nH]1 :: 89.6 µM (active)

-- ask Write down EC50 measured for item [O-][n+]1c2ccccc2[n+]([O-])c2cc(O)ccc21
-- reply > 150 µM (not active)

-- ask Tell me measured EC50 for Cc1cc(=O)[nH]c(SCC(=O)Nc2ccc(Br)cc2)c1C#N please.
-- reply > 150 µM (not active)

-- ask Read the entry Cc1cccc(NC(=S)Nc2ccc(Cl)c(Cl)c2)c1 and write its reported EC50.
-- reply 24.5 µM (active)

-- ask Give the measured EC50 for CC12CCC(C(=O)Nc3cccc(Cl)c3Cl)([C@H](Br)C1=O)C2(C)C (some centres undefined)
-- reply > 150 µM (not active)

----------
The following compounds are shown together with reported EC50 values.
- subjectOfTest: Peroxisome proliferator-activated receptor gamma/Nuclear receptor coactivator 3 (Homo sapiens, UniProt P37231)
- Sequence (P37231 whole entry): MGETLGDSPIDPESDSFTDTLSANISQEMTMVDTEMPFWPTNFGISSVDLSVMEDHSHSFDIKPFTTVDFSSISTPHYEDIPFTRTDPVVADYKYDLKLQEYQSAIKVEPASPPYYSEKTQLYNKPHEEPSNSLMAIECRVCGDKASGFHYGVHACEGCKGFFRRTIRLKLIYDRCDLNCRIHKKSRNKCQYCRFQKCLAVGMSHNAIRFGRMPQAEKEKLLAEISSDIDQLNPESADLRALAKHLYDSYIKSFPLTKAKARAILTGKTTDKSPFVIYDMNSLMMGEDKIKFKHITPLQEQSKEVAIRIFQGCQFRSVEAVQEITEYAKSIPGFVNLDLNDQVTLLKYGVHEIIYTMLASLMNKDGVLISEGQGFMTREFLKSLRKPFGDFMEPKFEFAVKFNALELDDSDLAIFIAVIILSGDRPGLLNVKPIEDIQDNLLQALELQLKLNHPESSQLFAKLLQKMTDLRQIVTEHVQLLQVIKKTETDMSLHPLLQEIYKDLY
- Sequence (Q9Y6Q9 whole entry, further chain): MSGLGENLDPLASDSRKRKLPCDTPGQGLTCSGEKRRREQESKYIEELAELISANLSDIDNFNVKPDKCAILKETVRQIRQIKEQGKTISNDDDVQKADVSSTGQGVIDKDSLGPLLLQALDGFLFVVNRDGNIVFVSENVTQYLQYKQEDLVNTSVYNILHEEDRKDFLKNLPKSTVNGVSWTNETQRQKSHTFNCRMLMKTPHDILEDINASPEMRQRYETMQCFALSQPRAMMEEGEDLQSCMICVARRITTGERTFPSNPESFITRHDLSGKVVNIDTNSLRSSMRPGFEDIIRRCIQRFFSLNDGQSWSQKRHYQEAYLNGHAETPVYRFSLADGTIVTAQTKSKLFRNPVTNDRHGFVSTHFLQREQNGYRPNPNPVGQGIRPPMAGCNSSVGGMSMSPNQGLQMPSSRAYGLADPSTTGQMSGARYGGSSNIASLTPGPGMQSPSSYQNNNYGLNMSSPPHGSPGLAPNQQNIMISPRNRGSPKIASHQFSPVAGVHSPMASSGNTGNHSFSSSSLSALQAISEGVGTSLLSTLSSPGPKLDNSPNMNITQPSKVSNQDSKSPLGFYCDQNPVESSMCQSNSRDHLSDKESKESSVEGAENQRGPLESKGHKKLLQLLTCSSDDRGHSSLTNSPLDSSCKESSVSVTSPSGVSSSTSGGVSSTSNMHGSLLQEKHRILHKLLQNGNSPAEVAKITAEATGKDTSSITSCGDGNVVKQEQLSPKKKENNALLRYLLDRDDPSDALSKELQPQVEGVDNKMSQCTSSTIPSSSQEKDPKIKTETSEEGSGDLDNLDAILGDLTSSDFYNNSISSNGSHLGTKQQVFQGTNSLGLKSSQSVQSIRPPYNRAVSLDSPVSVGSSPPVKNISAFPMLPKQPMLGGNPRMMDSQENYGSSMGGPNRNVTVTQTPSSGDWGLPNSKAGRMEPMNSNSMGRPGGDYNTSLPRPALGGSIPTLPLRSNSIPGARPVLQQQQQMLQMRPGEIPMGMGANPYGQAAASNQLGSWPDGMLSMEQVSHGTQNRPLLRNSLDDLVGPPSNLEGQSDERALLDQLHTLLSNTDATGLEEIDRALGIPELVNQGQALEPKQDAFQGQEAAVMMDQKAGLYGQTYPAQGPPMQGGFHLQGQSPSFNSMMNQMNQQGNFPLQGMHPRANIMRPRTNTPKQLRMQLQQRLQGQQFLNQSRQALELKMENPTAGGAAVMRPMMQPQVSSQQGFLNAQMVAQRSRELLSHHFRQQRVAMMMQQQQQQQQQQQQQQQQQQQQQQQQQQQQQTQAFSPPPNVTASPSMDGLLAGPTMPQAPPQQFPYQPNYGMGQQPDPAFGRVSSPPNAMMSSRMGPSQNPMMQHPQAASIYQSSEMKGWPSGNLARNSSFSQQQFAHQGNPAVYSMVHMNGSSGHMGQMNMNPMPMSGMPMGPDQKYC
- testMethodNotes: TR-FRET dose response biochemical High Throughput Screening assay for agonists of the steroid receptor coactivator 3 (SRC-3) recruitment by the peroxisome proliferator-activated receptor gamma (PPAR gamma): non-selective agonists. [Related pubchem assays: 1301 (Confirmation screen.), 1048 (Primary screen.)]
- Type: functional

Consider the reported EC50 for these compounds:
COc1ccccc1C1CC(c2ccccc2)=NN1C(S)=Nc1ccccc1 (stereo unspecified) :: 80.4 µM (not active)
Cc1ccnc(NC(=O)CSc2cc(=O)n(C)c3ccccc23)c1 :: > 79.4 µM (not active)
N#CC1=C2SCN(Cc3ccccc3)CN2C(=O)CC1c1cccs1 (stereo unspecified) :: > 79.4 µM (not active)
Cc1ccccc1S(=O)(=O)Nc1nc2ccccc2nc1N1CCOCC1 :: > 79.4 µM (not active)
COc1ccccc1OCC(=O)Nc1nnc(-c2ccco2)s1 :: > 79.4 µM (not active)

// below: EC50 requested for another compound
-- ask Please give the documented EC50 of Fc1ccccc1CSc1ncnc2c1oc1ccccc12
-- reply > 79.4 µM (not active)

----------
Reported IC50 values for the following compounds.
- subjectOfTest: DNA dC->dU-editing enzyme APOBEC-3A (Homo sapiens)
- Sequence (P31941 whole entry): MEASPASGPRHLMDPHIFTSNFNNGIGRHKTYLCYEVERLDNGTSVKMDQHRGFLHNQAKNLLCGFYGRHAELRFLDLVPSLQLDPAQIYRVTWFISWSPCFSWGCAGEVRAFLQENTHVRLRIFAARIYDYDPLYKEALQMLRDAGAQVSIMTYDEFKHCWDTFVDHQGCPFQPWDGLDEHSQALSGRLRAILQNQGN
- testMethodNotes: Dose Response confirmation of small molecule APOBEC3A DNA Deaminase Inhibitors via a fluorescence-based single-stranded DNA deaminase assay. [Related pubchem assays (depositor defined):AID493011, AID493024]
- Type: functional
Active and inactive are the calls of the source.

Solved entries:
COCCN(CC(=O)Nc1cccc(C)c1C)C(=O)CN1C(=O)NC2(CCCCC2)C1=O :: 11.1 µM (active)
COc1ccc(CCNC(=O)CN(C2CCCCC2)S(C)(=O)=O)cc1OC :: 4.1 µM (active)
O=C(CSc1ncnc2nc[nH]c12)Nc1ccccc1C(F)(F)F :: 50.8 µM (active)

-- ask Report measured IC50; entry is CCC(=O)Nc1cc(C(=O)O)ccc1S(=O)(=O)c1ccc(C)cc1
-- reply 16.4 µM (active)

----------
// reported AC50 for each item listed
- subjectOfTest: UniProt:Q06710
- Sequence (Q06710 whole entry): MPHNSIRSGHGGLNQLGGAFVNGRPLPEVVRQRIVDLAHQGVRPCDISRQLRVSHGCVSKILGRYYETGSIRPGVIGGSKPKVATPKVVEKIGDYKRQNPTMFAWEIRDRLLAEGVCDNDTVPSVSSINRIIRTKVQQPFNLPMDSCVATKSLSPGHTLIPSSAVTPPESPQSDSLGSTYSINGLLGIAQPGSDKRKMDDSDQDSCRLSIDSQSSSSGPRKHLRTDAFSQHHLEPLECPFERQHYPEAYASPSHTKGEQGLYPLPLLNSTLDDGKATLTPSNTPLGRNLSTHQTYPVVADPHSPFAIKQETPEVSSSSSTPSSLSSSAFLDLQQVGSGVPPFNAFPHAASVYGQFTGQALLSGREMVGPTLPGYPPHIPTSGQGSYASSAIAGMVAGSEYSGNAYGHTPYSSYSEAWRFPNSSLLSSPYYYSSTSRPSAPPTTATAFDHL
- testMethodNotes: PAX8 transcriptional activity inhibition in RMG-I – RMG-I cells, luciferase, cherry-pick, dose response (AID 687027);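 note: luciferase reporter driven by Pax8 target thyroperoxidase promoter measured by SteadyGlo luminescence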
- Assay type: functional, cell-based
The source made the active and inactive calls.

O=C1/C(=C\c2ccc(Cl)c(Cl)c2)CN(C(=O)CCN2CCOCC2)C/C1=C/c1ccc(Cl)c(Cl)c1 :: 2.65 µM (active)
Cc1ccccc1S(=O)(=O)N1C[C@@H]2N[C@H](C1)[C@H]2c1ccc(-c2cccc(C#N)c2)cc1 :: 3.75 µM (active)
CCOc1ccc(C(=O)O/N=C(\N)c2ccccn2)cc1 :: 7.43 µM (active)
C[C@@H]1CCCCO[C@H](CN(C)Cc2ccc(C(F)(F)F)cc2)[C@@H](C)CN([C@@H](C)CO)C(=O)c2cc(NS(=O)(=O)c3ccc(F)cc3)ccc2O1 :: 8.57 µM (active)
Nc1nc(Sc2ccc([N+](=O)[O-])c3nonc23)c2[nH]cnc2n1 :: 2.17 µM (active)

-- ask GET AC50 where system = UniProt:Q06710 and item = OCCCNc1nccc(-c2cc(Nc3cccc(Cl)c3)ncn2)n1
-- reply 2.7 µM (active)

----------
- subjectOfTest: Insulin-degrading enzyme (Homo sapiens)
- Sequence (P14735 whole entry): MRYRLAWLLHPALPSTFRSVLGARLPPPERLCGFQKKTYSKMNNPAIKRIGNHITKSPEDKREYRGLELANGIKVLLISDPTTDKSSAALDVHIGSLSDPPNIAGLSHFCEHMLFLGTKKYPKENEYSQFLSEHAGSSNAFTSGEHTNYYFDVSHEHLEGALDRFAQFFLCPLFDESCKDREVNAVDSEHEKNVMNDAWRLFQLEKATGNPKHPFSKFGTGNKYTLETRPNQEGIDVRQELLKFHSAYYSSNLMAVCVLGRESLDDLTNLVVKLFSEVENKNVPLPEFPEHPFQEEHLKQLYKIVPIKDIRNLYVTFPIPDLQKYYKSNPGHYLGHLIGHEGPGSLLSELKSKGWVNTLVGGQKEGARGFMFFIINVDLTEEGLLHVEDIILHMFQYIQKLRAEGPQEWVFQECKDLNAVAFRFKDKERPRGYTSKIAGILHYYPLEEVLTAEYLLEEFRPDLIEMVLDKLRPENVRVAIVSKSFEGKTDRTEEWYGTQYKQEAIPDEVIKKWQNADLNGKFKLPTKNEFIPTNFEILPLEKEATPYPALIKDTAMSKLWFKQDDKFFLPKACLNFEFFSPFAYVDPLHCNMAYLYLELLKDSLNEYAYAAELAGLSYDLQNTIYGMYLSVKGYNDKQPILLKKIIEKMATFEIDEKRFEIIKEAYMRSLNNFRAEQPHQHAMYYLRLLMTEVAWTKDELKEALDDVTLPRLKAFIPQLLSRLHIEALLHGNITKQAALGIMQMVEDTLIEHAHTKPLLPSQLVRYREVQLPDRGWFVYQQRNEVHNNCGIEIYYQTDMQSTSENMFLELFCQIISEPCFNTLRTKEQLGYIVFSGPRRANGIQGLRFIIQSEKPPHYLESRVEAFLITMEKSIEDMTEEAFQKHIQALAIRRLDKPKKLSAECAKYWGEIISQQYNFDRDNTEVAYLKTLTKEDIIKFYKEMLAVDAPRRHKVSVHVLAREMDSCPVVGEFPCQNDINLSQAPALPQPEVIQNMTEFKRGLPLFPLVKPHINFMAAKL
- testMethodNotes: recombinant IDE activation, cell-free – biochemical, fluorescence polarization, counter-screen for IDE activator project, dose response (AID 588681)
The source made the active and inactive calls.
Outcomes you can answer with include only these: active, inactive

See these solved cases before continuing.
C#CCOCCOCCOCCNc1nc(N2CCN(C(=O)CCCCCCCCCCNC(=O)[C@H](CO)n3cc(CCCSC)nn3)CC2)nc(N2CCN(C(=O)CCCCCCCCCCNC(=O)[C@H](CCCN=C(N)N)n3cc(C[C@@H](C)CC)nn3)CC2)n1 :: active
C#CCOCCOCCOCCNc1nc(N2CCN(C(=O)CCCCCCCCCCNC(=O)[C@@H](CCSC)n3cc(CCO)nn3)CC2)nc(N2CCN(C(=O)CCCCCCCCCCNC(=O)[C@H]([C@@H](C)CC)n3cc(CCCCN=C(N)N)nn3)CC2)n1 :: active
C#CCOCCOCCOCCNc1nc(N2CCN(C(=O)CCCCCCCCCCNC(=O)[C@H](CCCCN)n3cc(C)nn3)CC2)nc(N2CCN(C(=O)CCCCCCCCCCNC(=O)[C@@H]([C@H](C)O)n3cc(C)nn3)CC2)n1 :: inactive
C[n+]1c2cc(N)ccc2cc2ccc(N)cc21 :: inactive

-- ask Please share the test call associated with CCn1c(=O)c([N+](=O)[O-])c(NCc2ccc3c(c2)OCO3)c2ccccc21 .
-- reply inactive
